The reader will find reported cell viability, % of control (lower = more cytotoxic) values listed item by item below.
assay: High-throughput drug toxicity screening in the BPDCN cell line Gen2.2 (AID 1224824); conditions: Gen2.2 BPDCN cells; at 45.8 µM (top of the series) unless noted;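 note: cells exposed to compounds for 48 h before reading; 100% = DMSO and 0% = bortezomib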
Measured Attribute: cell viability, % of control (lower = more cytotoxic)

| Structure Smiles | Value Observed |
| --- | --- |
| Nc1ccc(C(=O)c2cc3c(ccc4ccccc43)[nH]2)cc1 | 66.8% |
| CC1(C)CCC(c2ccc(Cl)cc2)=C(CN2CCN(c3ccc(C(=O)NS(=O)(=O)c4ccc(N[C@H](CCN5CCOCC5)CSc5ccccc5)c(S(=O)(=O)C(F)(F)F)c4)cc3)CC2)C1 | 7.3% |
| CC(C)c1cnn2c(NCc3ccccc3)cc(N[C@@H](CO)[C@H](O)CO)nc12 | 3.01% |
| CC(=O)c1c(C)c2cnc(Nc3ccc(N4CCNCC4)cn3)nc2n(C2CCCC2)c1=O | 8.1% |
| COc1ccc(C=Cc2cc(OC)c(OC)c(OC)c2)cc1O | 10.8% |
| c1cc(-c2cnn3cc(-c4ccc(OCCN5CCCCC5)cc4)cnc23)ccn1 | 2.64% |
| Cc1[nH]nc2ccc(-c3cncc(OC[C@@H](N)Cc4ccccc4)c3)cc12 | 7.91% |
| O=C(CCCCCCC(=O)Nc1ccc([C@H]2O[C@@H](CSc3nc(-c4ccccc4)c(-c4ccccc4)o3)C[C@@H](c3ccc(CO)cc3)O2)cc1)NO | 9.13% |
